Biological target: T1, human CC chemokine receptor 1 (human CCR1) (human, UniProt P32246 1-355)
T1 construct: endogenous on THP-1 cells in the migration assays; also called hCCR1; CHO-S-hCCR1 (expressing cells)
T1 sequence: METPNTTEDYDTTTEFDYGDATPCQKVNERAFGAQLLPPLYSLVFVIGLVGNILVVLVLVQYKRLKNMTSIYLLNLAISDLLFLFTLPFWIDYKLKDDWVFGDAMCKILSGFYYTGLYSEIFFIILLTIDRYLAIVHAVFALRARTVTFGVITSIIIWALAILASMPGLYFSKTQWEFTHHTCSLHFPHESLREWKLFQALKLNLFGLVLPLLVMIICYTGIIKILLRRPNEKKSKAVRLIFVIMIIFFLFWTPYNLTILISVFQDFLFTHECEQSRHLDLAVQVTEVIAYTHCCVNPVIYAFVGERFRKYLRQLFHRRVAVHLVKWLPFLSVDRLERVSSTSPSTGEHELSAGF
Experiment: flow cytometry on CHO-S-hCCR1 cells; bound = fluorescence 10 times or more that of isotype control hzDNP1
Method: The antigen affinity of the chKM5908′ antibody, which is a VL-substituted chimeric antibody, was measured by flow cytometry using the CHO-S-hCCR1 cells produced in Example 2. […] After washing the cells with SM, the cells were resuspended in 50 μL of SM, and the fluorescence intensity was measured by the flow cytometry (FACS Canto II, BD Biosciences). […]
Endpoint Name: binding result

hzKM5907 LV2bHV4 antibody (antibody, V domains shown, humanized; also called hzmAb5907 LV2bHV4) VH: EVQLLESGGGLVQPGGSLRLSCAASGFTFSRYGMSWVRQAPGKGLEWVASISATFTYTYYTDNVKGRFTISRDNSKNTLYLQMNSLRAEDTGVYYCTRQDNYAWFDSWGQGTLVTVSS VL: DIVMTQTPLSLPVTSGEPVSISCRSSQSIVHSNGNTFLEWYLKKPGQSPQLLIYKVSSRFSGVPDRFSGSGSGTDFTLKISRVEAEDVGVYYCFQGSHIPWTFGGGTKVEIK	binds
hzKM5907 LV0HV7 antibody (antibody, V domains shown, humanized; also called hzmAb5907 LV0HV7) VH: EVQVLESGGGLVQPGGSLRLSCAASGFTFSRYGMSWVRQAPGKRLEWVASISATFTYTYYTDNVKGRFTISRDNSKNTLYLQMNSLRAEDTGMYYCTRQDNYAWFDSWGQGTLVTVSS VL: DIVMTQTPLSLPVTSGEPASISCRSSQSIVHSNGNTFLEWYLQKPGQSPQLLIYKVSSRFSGVPDRFSGSGSGTDFTLKISRVEAEDVGVYYCFQGSHIPWTFGGGTKVEIK	binds
hzKM5916 LV0HV0 antibody (antibody, V domains shown, humanized; also called hzmAb5916 LV0HV0) VH: QVQLQESGGGLVKPGGSLKLSCAASGFTFSRNAMSWVRQTPDKRLEWVAYISSGSDYIYYADTVKGRFTISRDNAKNTLYLQMSSLKSEDTAMYYCARFSYGYGKNAPDYWGQGTMVTVSS VL: DIQMTQSPSSLSASVGDRVTITCKASQDINKYIAWYQQKPGKAPKLLIHYTSSLQPGVPSRFSGSGSGTDFSFTISSLQPEDLATYYCLQYDYTMTFGGGTKVEIK	binds

Just for reference, patent US20240026017A1 is where these values come from.
